Test system: human ether-a-go-go related gene (hERG) channel (Homo sapiens, UniProt Q12809)
Construct: expressed in transfected cells; host or cells: CHO cells
Sequence (Q12809 whole entry): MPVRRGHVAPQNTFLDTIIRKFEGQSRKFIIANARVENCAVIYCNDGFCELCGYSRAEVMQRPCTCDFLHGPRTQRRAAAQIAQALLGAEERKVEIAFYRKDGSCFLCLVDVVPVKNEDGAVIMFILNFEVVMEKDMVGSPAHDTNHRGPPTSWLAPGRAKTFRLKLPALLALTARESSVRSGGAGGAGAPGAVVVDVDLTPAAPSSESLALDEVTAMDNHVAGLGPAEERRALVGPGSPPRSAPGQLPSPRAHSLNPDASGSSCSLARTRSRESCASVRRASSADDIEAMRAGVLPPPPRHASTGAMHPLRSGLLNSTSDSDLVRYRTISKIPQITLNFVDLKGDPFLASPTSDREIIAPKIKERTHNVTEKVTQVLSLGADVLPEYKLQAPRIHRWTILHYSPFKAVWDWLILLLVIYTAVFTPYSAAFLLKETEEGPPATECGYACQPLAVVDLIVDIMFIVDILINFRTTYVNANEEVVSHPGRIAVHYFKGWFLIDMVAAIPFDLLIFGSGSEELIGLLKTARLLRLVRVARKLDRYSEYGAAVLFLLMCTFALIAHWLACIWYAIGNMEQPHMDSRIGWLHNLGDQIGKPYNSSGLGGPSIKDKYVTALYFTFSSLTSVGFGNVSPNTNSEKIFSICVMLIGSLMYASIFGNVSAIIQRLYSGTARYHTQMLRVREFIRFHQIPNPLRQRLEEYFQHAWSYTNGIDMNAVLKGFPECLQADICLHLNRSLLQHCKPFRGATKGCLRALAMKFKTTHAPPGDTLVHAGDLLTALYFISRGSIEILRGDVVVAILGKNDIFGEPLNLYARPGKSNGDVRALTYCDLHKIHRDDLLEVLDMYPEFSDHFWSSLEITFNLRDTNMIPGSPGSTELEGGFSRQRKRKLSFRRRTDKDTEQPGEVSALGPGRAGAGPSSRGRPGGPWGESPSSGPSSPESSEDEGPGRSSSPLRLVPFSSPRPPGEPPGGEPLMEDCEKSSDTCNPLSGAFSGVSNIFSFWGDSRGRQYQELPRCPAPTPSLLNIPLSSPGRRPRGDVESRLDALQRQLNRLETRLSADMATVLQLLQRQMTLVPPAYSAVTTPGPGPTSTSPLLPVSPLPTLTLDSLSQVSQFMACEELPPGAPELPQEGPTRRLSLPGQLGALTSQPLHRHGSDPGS
Protocol summary: Test Example 3: hERG Test (whole cell patch clamp, IKr)
Format: cell-based
Experimental parameters: CHO cells expressing hERG
Property name: % inhibition of IKr (hERG tail peak current) (%)
Answer in %, number only, no unit symbol.

// below: answered compounds
INSERT INTO assay_data (compound, recorded_result) VALUES
  ('COCC[C@@H]1C[C@@H](NC(=O)Nc2c(C)c(-c3cnn(C)c3)nn2-c2ccccc2)[C@H](c2ccc(F)c(F)c2)N1C [Compound I-214]', 20.2),
  ('COCC(=O)N1C[C@@H](NC(=O)Nc2c(C)c(-c3cnn(C)c3)nn2-c2ccccc2)[C@H](c2ccc(F)c(F)c2)C1 [Compound I-026]', 3.3),
  ('COCC[C@@H]1C[C@@H](NC(=O)Nc2c(C)c(-c3cnn(C)c3)nn2-c2ccccc2)[C@H](c2ccnc(F)c2)C1 [Compound I-262]', 20.1);

Ask: Provide one value: measured % inhibition of IKr (hERG tail peak current) of COCC[C@@H]1C[C@@H](NC(=O)Nc2c(C)c(-c3cnc(C)nc3)nn2-c2ccccc2)[C@H](c2ccc(F)c(F)c2)N1C [Compound I-255]
Result: 10.2

Ask: Provide one value: measured % inhibition of IKr (hERG tail peak current) of COCCC1C[C@@H](NC(=O)Nc2c(C)c(-c3cnn(C)c3)nn2-c2ccccc2)[C@H](c2ccc(O)c(O)c2)C1 (some centres unmarked) [Compound I-221]
Result: 13.2

Ask: Provide one value: measured % inhibition of IKr (hERG tail peak current) of C=C1C[C@@H](NC(=O)Nc2c(C)c(-c3cnn(C)c3)nn2-c2ccccc2)[C@H](c2ccccc2)C1 (racemic) [Compound I-29]
Result: 21.2

Ask: Provide one value: measured % inhibition of IKr (hERG tail peak current) of COCC[N+]1([O-])C[C@@H](NC(=O)Nc2c(C)c(-c3cnn(C)c3)nn2-c2ccccc2)[C@H](c2ccc(F)c(F)c2)C1 (some centres unmarked) [Compound I-3]
Result: 20.4

Ask: Provide one value: measured % inhibition of IKr (hERG tail peak current) of COCC[C@@H]1C[C@@H](NC(=O)Nc2c(C)c(-c3cnn(C)c3)nn2-c2ccccc2)[C@H](c2ccccc2)C1 [Compound I-084]
Result: 10.0

###

// pIC50 lookup, one value per entry
Test system: human TrkA (Homo sapiens, UniProt P04629)
Construct: purchased Lifetechnologies PV3144
Sequence (P04629 33-796): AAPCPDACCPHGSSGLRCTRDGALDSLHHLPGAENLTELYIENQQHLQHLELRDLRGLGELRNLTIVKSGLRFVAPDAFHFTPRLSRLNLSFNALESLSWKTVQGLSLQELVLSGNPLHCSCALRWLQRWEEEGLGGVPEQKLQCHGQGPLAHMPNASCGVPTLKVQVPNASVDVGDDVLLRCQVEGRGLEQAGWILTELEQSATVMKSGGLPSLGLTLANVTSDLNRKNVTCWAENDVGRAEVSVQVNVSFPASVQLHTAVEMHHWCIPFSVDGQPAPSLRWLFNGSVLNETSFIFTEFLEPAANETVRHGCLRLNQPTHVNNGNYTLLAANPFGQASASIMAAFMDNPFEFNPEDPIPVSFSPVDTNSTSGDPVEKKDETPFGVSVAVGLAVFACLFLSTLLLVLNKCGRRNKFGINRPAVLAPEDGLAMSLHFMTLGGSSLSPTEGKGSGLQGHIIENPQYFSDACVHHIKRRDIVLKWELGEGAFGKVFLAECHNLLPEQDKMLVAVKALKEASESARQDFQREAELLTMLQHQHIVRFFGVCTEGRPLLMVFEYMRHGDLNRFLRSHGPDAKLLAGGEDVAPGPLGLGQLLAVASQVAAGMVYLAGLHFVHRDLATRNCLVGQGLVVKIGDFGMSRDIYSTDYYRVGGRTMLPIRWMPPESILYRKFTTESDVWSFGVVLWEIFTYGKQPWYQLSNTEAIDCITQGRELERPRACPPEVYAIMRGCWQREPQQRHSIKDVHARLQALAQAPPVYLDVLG
Protocol summary: Test Example 2-2: Human TrkA Inhibition Assay
Type: biochemical
Experimental parameters: class symbols, read-out: IC50_nM
pIC50: −log10 of the molar value.

// below: answered compounds
INSERT INTO results (compound, recorded_result) VALUES
  ('COCC[C@@H]1C[C@@H](NC(=O)Nc2c(C)c(OCC3CCN(C)CC3)nn2-c2ccccc2)[C@H](c2ccccc2)C1 [Compound I-272]', '> 7.00'),
  ('COCC(O)C1C[C@@H](NC(=O)Nc2c(C)c(-c3cnn(C)c3)nn2-c2ccccc2)[C@H](c2ccccc2)C1 (stereo partly drawn) [Compound I-271]', '6.00 to 7.00'),
  ('COCC[C@@H]1C[C@@H](NC(=O)Nc2c(C)c(-c3cnn(C)c3)nn2-c2ccccc2)[C@](O)(c2ccccc2)C1 [Compound I-273]', '< 6.00'),
  ('COCCN1C[C@@H](NC(=O)Nc2c(C)c(-c3cnn(C)c3)nn2-c2ccccc2)[C@H](c2ccc3c(c2)COC3)C1 (racemic) [Compound I-274]', '6.00 to 7.00'),
  ('COCC[C@@H]1C[C@@H](NC(=O)Nc2c(C)c(C3=CCN(C(=O)OC)CC3)nn2-c2ccccc2)[C@H](c2ccccc2)C1 [Compound I-268]', '> 7.00');

Proceed to the following item.
Ask: Look up human TrkA (Homo sapiens, UniProt P04629) data: pIC50 of COCC[C@@H]1C[C@@H](NC(=O)Nc2c(C)c(-c3cnn(C)c3)nn2-c2ccccc2)[C@H](c2ccc(F)cc2)N1C [Compound I-275] , then report it.
Result: > 7.00

###

Test system: human TrkA (Homo sapiens, UniProt P04629)
Construct: purchased Lifetechnologies PV3144
Protocol summary: Test Example 2-2: Human TrkA Inhibition Assay
Format: biochemical
Experimental parameters: human TrkA inhibition, class symbols A/B/C, read-out: IC50_nM
Property name: IC50

// below: answered compounds
INSERT INTO results (compound, test_system, recorded_result) VALUES
  ('COCCC1C[C@@H](NC(=O)Nc2c(C)c(-c3ccnc(C)c3)nn2-c2ccccc2)[C@H](c2ccccc2)C1 (stereo partly drawn)', 'human TrkA (Homo sapiens, UniProt P04629)', '< 100 nM'),
  ('Cc1cc(CN2C[C@@H](NC(=O)Nc3c(C)c(-c4cnn(C)c4)nn3-c3ccccc3)[C@H](c3ccc(F)c(F)c3)C2)oc1C', 'human TrkA (Homo sapiens, UniProt P04629)', '100 to 1000 nM'),
  ('COCC[C@@H]1C[C@@H](NC(=O)Nc2c(C)c(C3=CCNCC3)nn2-c2ccccc2)[C@H](c2ccc(F)c(F)c2)N1', 'human TrkA (Homo sapiens, UniProt P04629)', '< 100 nM'),
  ('COCC(OC)[C@H]1C[C@@H](NC(=O)Nc2c(C)c(-c3cnn(C)c3)nn2-c2ccccc2)[C@H](c2ccc(F)c(F)c2)N1C (stereo partly drawn)', 'human TrkA (Homo sapiens, UniProt P04629)', '> 1000 nM'),
  ('COCC[C@@H]1C[C@@H](NC(=O)Nc2c(C)c(-c3ccc(OC)nc3)nn2-c2ccccc2)[C@H](c2ccc(F)c(F)c2)N1', 'human TrkA (Homo sapiens, UniProt P04629)', '< 100 nM');

Ask: Provide one value: measured IC50 of CCOC(=O)C(COC)[C@@H]1C[C@@H](NC(=O)Nc2c(C)c(-c3cnn(C)c3)nn2-c2ccccc2)[C@H](c2ccccc2)C1 (mixture of isomers)
Result: > 1000 nM

Ask: Provide one value: measured IC50 of COCC[C@@H]1C[C@@H](NC(=O)Nc2c(C)c(C3=CCN(C(=O)OC(C)(C)C)CC3)nn2-c2ccccc2)[C@H](c2ccccc2)C1
Result: < 100 nM

Ask: Provide one value: measured IC50 of CCNC(=O)c1ccc(-c2nn(-c3ccccc3)c(NC(=O)N[C@@H]3C[C@@H](CCOC)C[C@H]3c3ccccc3)c2C)cc1
Result: < 100 nM

Ask: Provide one value: measured IC50 of COCC(c1ccco1)N1C[C@@H](NC(=O)Nc2c(C)c(-c3cnn(C)c3)nn2-c2ccccc2)[C@H](c2ccc(F)c(F)c2)C1 (stereo partly drawn)
Result: 100 to 1000 nM

Ask: Provide one value: measured IC50 of COCC[C@@H]1C[C@@H](NC(=O)Nc2c(C)c(-c3cnn(C)c3)nn2-c2ccccc2)[C@H](c2ccc(F)c(F)c2)N1
Result: < 100 nM

Ask: Provide one value: measured IC50 of COCCN1C[C@@H](NC(=O)Nc2c(C)c(-c3cnn(C)c3)nn2-c2ccccc2)[C@H](c2ccc(F)c(F)c2)C1
Result: < 100 nM

Ask: Provide one value: measured IC50 of COCCC1C[C@@H](NC(=O)Nc2c(C)c(-c3ccc(C(=O)OC(C)(C)C)cc3)nn2-c2ccccc2)[C@H](c2ccccc2)C1 (stereo partly drawn)
Result: < 100 nM

###

Test system: human TrkA (Homo sapiens, UniProt P04629)
Construct: purchased Lifetechnologies PV3144
Protocol summary: Test Example 2: Human TrkA Inhibition Assay
Type: biochemical
Experimental parameters: human TrkA inhibition, Test Example 2; class symbols A/B/C; read-out: IC50_nM
pIC50: −log10 of the molar value.
Property name: pIC50

// below: answered compounds
INSERT INTO assay_data (compound, test_system, recorded_result) VALUES
  ('Cc1c(-c2cnn(C)c2)nn(-c2ccccc2)c1NC(=O)N[C@@H]1CN(c2nn[nH]n2)C[C@H]1c1ccc(F)c(F)c1', 'human TrkA (Homo sapiens, UniProt P04629)', '< 6.00'),
  ('COCC(CNC(=O)OC)N1C[C@@H](NC(=O)Nc2c(C)c(-c3cnn(C)c3)nn2-c2ccccc2)[C@H](c2ccc(F)c(F)c2)C1 (stereo partly shown)', 'human TrkA (Homo sapiens, UniProt P04629)', '6.00 to 7.00'),
  ('COCCN1C[C@H](NC(=O)Nc2c(C)c(-c3cnn(C)c3)nn2-c2ccccc2)[C@H](c2ccc(F)c(F)c2)C1 (racemic)', 'human TrkA (Homo sapiens, UniProt P04629)', '< 6.00');

Proceed to the following item.
Ask: Provide one value: measured pIC50 of Cc1c(-c2cnn(C)c2)nn(-c2ccccc2)c1NC(=O)N[C@@H]1CN(CC2CCCCO2)C[C@H]1c1ccc(F)c(F)c1 (stereo partly shown)
Result: < 6.00
